Data credit: PubChem BioAssay (NCI)

growth: recorded values
tested on: NCI-H322M lung; assay: NCI-60 one-dose screen, 48 h (100 = growth as untreated, 0 = no growth, -100 = all killed); conditions: 10 µM unless noted
Compounds without any hit were thinned out: in the full panel of roughly 83,000, 20% have a hit. Calls of active or inactive are those of the source. The calls were made as follows: active = growth percent below 10; inactive = the rest.

Observe how each entry below is paired with its result.
COC(=O)c1c(C)c2n(c1C)C(=O)C(c1ccccc1)=C2    94.5% (inactive)
COc1ccc(Nc2nc(-c3cc(O)c(C)c(C)c3O)cs2)cc1    90.9% (inactive)
N#CSc1c[nH]c2cccc(/C=C/C(=O)/C=C(/C=C/c3cccc4[nH]cc(SC#N)c34)OB(F)F)c12    53.7% (inactive)

API: the following record is the query input.
**Query** Could you share which growth value was measured for O=C1c2ccc3c4c5ccc(c24)C(=O)N1CCCOCCCCOCCCNCc1ccc(cc1)CNCCCOCCCCOCCCN(C3=O)C5=O ?
**Result** 0.552% (active)

====

tested on: UACC-62 melanoma; assay: NCI-60 one-dose screen, 48 h; settings: 10 µM unless noted
This is part of a sample that, as a whole, favours compounds with a hit. Of some 83,000 tested, about 20% had one in any assay. The source made the active and inactive calls. Rule for the calls: active = growth percent below 10; inactive = the rest.
Respond with a class label; see YES (active), NO (inactive)

COC12C=C/C(=C(/C(=O)OCc3ccncc3)C(=O)CCCCCCCCC3(OC)C=C/C(=C(/C(=O)OCc4ccncc4)C(=O)CCCCCCCC1)O3)O2    YES

Moving on to the next molecule.
**Query** Dear all, I need the recorded test outcome for Cc1c2cnccc2c(C)c2c1c1cc(C#N)ccc1n2C , thank you.
**Result** YES

====

system: SNB-75 CNS; experiment: NCI-60 one-dose screen, 48 h; settings: 10 µM unless noted
Compounds without any hit were thinned out: in the full panel of roughly 83,000, 20% have a hit. Calls of active or inactive are those of the source. The calls were made as follows: active = growth percent below 10; inactive = the rest.
Respond with a class label; see active, inactive

Cc1cc(=O)oc2cc(OCc3nn4c(Nc5nc6ccccc6s5)c(-c5ccccc5)nc4s3)ccc12    inactive

**Query** Dear all, I need the recorded test outcome for COCCOc1cc2ncnc(N3CCN(c4ncc(S(=O)(=O)N5CCCCC5)cn4)CC3)c2cc1OCCOC , thank you.
**Result** inactive

**Query** Dear all, I need the recorded test outcome for Cc1c(O)cc(-c2cnc(Nc3ccccc3)s2)c(O)c1C , thank you.
**Result** inactive

**Query** Dear all, I need the recorded test outcome for c1ccc2cc(C[n+]3ccn(CCCCCCCCCCn4cc[n+](Cc5ccc6ccccc6c5)c4)c3)ccc2c1 , thank you.
**Result** active

**Query** Dear all, I need the recorded test outcome for O=S(=O)(Nc1ccc(Cl)c(C(F)(F)F)c1)c1ccc(-c2cnc(C3CC3)o2)cc1 , thank you.
**Result** active

**Query** Dear all, I need the recorded test outcome for COc1cc(OCc2cccc(Br)c2C)cc(OC)c1C=O , thank you.
**Result** inactive

**Query** Dear all, I need the recorded test outcome for CCn1c(SCC(=O)N/N=C(\C)c2ccc(Cl)cc2)nc2c1c(=O)n(C)c(=O)n2C , thank you.
**Result** inactive

**Query** Dear all, I need the recorded test outcome for Cc1cccc(/C=C2\CN(C(=O)OC(C)(C)C)C/C(=C\c3cccc(C)c3)C2=O)c1 , thank you.
**Result** inactive

**Query** Dear all, I need the recorded test outcome for NC(N)=NCCCCCNc1noc(Cc2c[nH]c3cc(Br)ccc23)n1 , thank you.
**Result** inactive

**Query** Dear all, I need the recorded test outcome for CN(C)Cc1ccc(O)c(C(=O)O)c1 , thank you.
**Result** inactive

**Query** Dear all, I need the recorded test outcome for N#Cc1nc(-c2ccccc2)oc1S(=O)(=O)N1CCN(c2ccccc2)CC1 , thank you.
**Result** inactive
